Sourced from patent US20250223306A1

- system-under-test: UniProt:Q15561
- Sequence (Q15561 whole entry): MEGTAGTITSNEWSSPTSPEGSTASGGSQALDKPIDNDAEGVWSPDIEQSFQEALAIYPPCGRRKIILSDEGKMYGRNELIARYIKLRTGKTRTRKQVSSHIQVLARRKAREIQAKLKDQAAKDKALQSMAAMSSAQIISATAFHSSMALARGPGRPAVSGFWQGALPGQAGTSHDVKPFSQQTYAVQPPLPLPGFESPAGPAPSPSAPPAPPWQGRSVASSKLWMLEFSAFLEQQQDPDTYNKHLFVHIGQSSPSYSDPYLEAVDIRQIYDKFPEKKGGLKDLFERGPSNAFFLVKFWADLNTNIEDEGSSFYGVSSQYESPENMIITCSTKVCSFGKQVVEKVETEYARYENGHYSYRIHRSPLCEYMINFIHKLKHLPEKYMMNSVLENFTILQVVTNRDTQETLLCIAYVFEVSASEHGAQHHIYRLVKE
- assay-overview: TEAD thermal shift assay (TSA)
- Assay type: binding
- condition: ratio of protein to compound 1:3
Listing: TEAD4 ΔTm of selected molecules
The answer is to be given in °C; state only the numeric part.

Illustrative cases are given below, each with its answer.
# molecule, unit-descriptor, TEAD4 ΔTm
records = [
    ("COC[C@H](CO)NC(=O)c1cnc2c(C3=CCC(C(F)(F)F)CC3)cccc2c1 (stereo partly shown)", "°C", 3),
    ("C[C@H](NC(=O)c1cnc2c(C3=CCC(C(F)(F)F)CC3)cccc2c1)c1ccccn1 (stereo partly shown)", "°C", 4),
    ("C[C@H](NC(=O)c1ccc2c(-c3ccc(C(F)(F)F)cc3)cccc2c1)c1cccc(N)n1 [Compound 1-4, reference compound]", "°C", 9),
]

Query molecule follows.
Notebook: pull reported TEAD4 ΔTm for UniProt:Q15561, entry COc1cc(C2=CCC(C(F)(F)F)CC2)c2ncc(C(=O)N[C@H](C)CO)cc2c1 (stereo partly shown)
3
